// data source = ChEMBL document CHEMBL1687858

# TARGET_OR_TEST_SYSTEM: Hypoxia inducible factors; HIF-1-alpha, HIF-2-alpha (Homo sapiens, UniProt Q16665+Q99814)
# METHOD_DESCRIPTION: Inhibition of 1,10-phenanthrolin-induced HIF1 activation in human T47D cells expressing pGL3 construct after 16 hrs by cell-based luciferase reporter assay
Listing: log10(IC50) of selected molecules
Would you kindly interpret these values as log10 of IC50 expressed in µM?

- MOLECULE: "CCCc1cc(=O)oc2c(C(=O)CC(C)C)c(O)c(CC=C(C)C)c(O)c12"
  TARGET_OR_TEST_SYSTEM: "Hypoxia inducible factors; HIF-1-alpha, HIF-2-alpha (Homo sapiens, UniProt Q16665+Q99814)"
  log10(IC50): 0.11

Shift focus to the following entry.
# input Recorded log10(IC50) for CCCC[C@H](O)c1cc(=O)oc2c(C(=O)[C@@H](C)CC)c(OC)c(CC=C(C)C)c(OC)c12 , please?
# output 0.81
